These measurements were taken from PubChem BioAssay AID1845197.

System: 349418-098-R tumor spheroid viability
method-description: Anticancer human tumor 349418-098-R patient-derived lung adenocarcinoma cell line growth inhibition
condition: curve of first compound; second compound 1 µM; spheroids with HUVEC and MSC
Sorting guide: entries reporting IC50 beneath 6 µM go in the yes pile, the rest go in the no pile.

| compound | subject-of-test | qualitative-label |
| --- | --- | --- |
| COc1ccc([C@@H](O)c2cc(-c3ncnc4cc(N5CCOCC5)ccc34)c(F)cc2Cl)nn1 + Cn1nnc2c(C(N)=O)ncn2c1=O | 349418-098-R tumor spheroid viability | yes |
| Cc1sc2c(c1C)C(c1ccc(Cl)cc1)=NC(CC(=O)Nc1ccc(O)cc1)c1nnc(C)n1-2 (stereo unspecified) + Cn1nnc2c(C(N)=O)ncn2c1=O | 349418-098-R tumor spheroid viability | yes |
| CC(C)n1c(=O)n(C)c2cnc3cc(F)c(-c4ccc(OCCCN5CCCCC5)nc4)cc3c21 + Cn1nnc2c(C(N)=O)ncn2c1=O | 349418-098-R tumor spheroid viability | no |
| CC1COCCN1c1cc(-c2ccnn2C)c2ccnc(-c3ccn[nH]3)c2n1 (stereo unspecified) + Cn1nnc2c(C(N)=O)ncn2c1=O | 349418-098-R tumor spheroid viability | yes |
| Cn1ncnc1[C@H]1c2n[nH]c(=O)c3cc(F)cc(c23)N[C@@H]1c1ccc(F)cc1 + Cn1nnc2c(C(N)=O)ncn2c1=O | 349418-098-R tumor spheroid viability | yes |
| Cc1cc(C)c(CNC(=O)c2cc(-c3ccc(CN4CCOCC4)cc3)cc3c2cnn3C2CCCC2)c(=O)[nH]1 + Cn1nnc2c(C(N)=O)ncn2c1=O | 349418-098-R tumor spheroid viability | no |

----------
System: 349418-098-R tumor spheroid viability
method-description: Anticancer human tumor 349418-098-R cell line growth inhibition;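 note: spheroids exposed to compound for 7 days before measurement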;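 for viability, T/C: percent of vehicle control viability with 100% = DMSO-treated spheroids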
condition: second compound 0.000949 µM; first compound 0.0949 µM; stronger effect = lower value; spheroids with HUVEC and MSC
property-measured: viability, T/C (%)

| compound | numeric-readout |
| --- | --- |
| O=C(c1cc(Cc2n[nH]c(=O)c3ccccc23)ccc1F)N1CCN(C(=O)C2CC2)CC1 + COc1cc2c(cc1O)CCNC21CSC2c3c(OC(C)=O)c(C)c4c(c3C(COC1=O)N1C(O)C3Cc5cc(C)c(OC)c(O)c5C(C21)N3C)OCO4 | 0.44 |
| Cn1ncnc1[C@H]1c2n[nH]c(=O)c3cc(F)cc(c23)N[C@@H]1c1ccc(F)cc1 + COc1cc2c(cc1O)CCNC21CSC2c3c(OC(C)=O)c(C)c4c(c3C(COC1=O)N1C(O)C3Cc5cc(C)c(OC)c(O)c5C(C21)N3C)OCO4 | 0.53 |
| Cc1sc2c(c1C)C(c1ccc(Cl)cc1)=NC(CC(=O)Nc1ccc(O)cc1)c1nnc(C)n1-2 (centres undefined) + COc1cc2c(cc1O)CCNC21CSC2c3c(OC(C)=O)c(C)c4c(c3C(COC1=O)N1C(O)C3Cc5cc(C)c(OC)c(O)c5C(C21)N3C)OCO4 | 0.19 |
| CNCc1ccc(-c2cc(-c3nc(-c4ccc(S(=O)(=O)C(C)C)cc4)cnc3N)on2)cc1 + COc1cc2c(cc1O)CCNC21CSC2c3c(OC(C)=O)c(C)c4c(c3C(COC1=O)N1C(O)C3Cc5cc(C)c(OC)c(O)c5C(C21)N3C)OCO4 | 0.51 |

----------
System: 349418-098-R tumor spheroid viability
method-description: Anticancer human tumor 349418-098-R cell line growth inhibition;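 note: spheroids exposed to compound for 7 days before measurement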;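 for viability, T/C: percent of vehicle control viability with 100% = DMSO-treated spheroids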
condition: second compound 10 µM; first compound 3.16 µM; stronger effect = lower value; spheroids with HUVEC and MSC
Sorting guide: entries reporting viability, T/C beneath 90% go in the 1.0 pile, the rest go in the 0.0 pile.

| molecule | subject-of-test | qualitative-label |
| --- | --- | --- |
| [2H]c1nc(C)nc([2H])c1-c1cc(NC[C@@H](C)c2cccc3c(C(=O)NC)ccnc23)ncn1 + Cn1nnc2c(C(N)=O)ncn2c1=O | 349418-098-R tumor spheroid viability | 0.0 |
| COc1cc(C)[nH]c(=O)c1CN1CCc2c(Cl)cc(C(OC)C3COC3)c(Cl)c2C1=O (stereo unspecified) + Cn1nnc2c(C(N)=O)ncn2c1=O | 349418-098-R tumor spheroid viability | 1.0 |
| Cc1cc(C)c(CNC(=O)c2cc(-c3ccc(CN4CCOCC4)cc3)cc3c2cnn3C2CCCC2)c(=O)[nH]1 + Cn1nnc2c(C(N)=O)ncn2c1=O | 349418-098-R tumor spheroid viability | 0.0 |
| COc1ccc([C@@H](O)c2cc(-c3ncnc4cc(N5CCOCC5)ccc34)c(F)cc2Cl)nn1 + Cn1nnc2c(C(N)=O)ncn2c1=O | 349418-098-R tumor spheroid viability | 1.0 |
| CC1COCCN1c1cc(-c2ccnn2C)c2ccnc(-c3ccn[nH]3)c2n1 (stereo unspecified) + Cn1nnc2c(C(N)=O)ncn2c1=O | 349418-098-R tumor spheroid viability | 1.0 |
| CC(C)n1c(=O)n(C)c2cnc3cc(F)c(-c4ccc(OCCCN5CCCCC5)nc4)cc3c21 + Cn1nnc2c(C(N)=O)ncn2c1=O | 349418-098-R tumor spheroid viability | 0.0 |

----------
Listing of entries alongside the reported IC50.
Test system: 349418-098-R tumor spheroid viability
method-description: Anticancer human tumor 349418-098-R cell line growth inhibition;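 note: spheroids exposed to compound for 7 days before measurement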
condition: curve of compound; spheroids with HUVEC and MSC

| molecule | IC50 |
| --- | --- |
| O=C(c1cc(Cc2n[nH]c(=O)c3ccccc23)ccc1F)N1CCN(C(=O)C2CC2)CC1 | > 30 µM |
| [2H]c1nc(C)nc([2H])c1-c1cc(NC[C@@H](C)c2cccc3c(C(=O)NC)ccnc23)ncn1 | > 10 µM |
| COc1cc(C)[nH]c(=O)c1CN1CCc2c(Cl)cc(C(OC)C3COC3)c(Cl)c2C1=O (stereo not drawn) | > 10 µM |

----------
System: 349418-098-R tumor spheroid viability
method-description: Anticancer human tumor 349418-098-R cell line growth inhibition;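 note: spheroids exposed to compound for 7 days before measurement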
condition: curve of first compound; second compound 0.0949 µM; spheroids with HUVEC and MSC
Description: Multicellular complex tumor spheroid response to DNA repair inhibitors in combination with DNA-damaging drugs This study explores the anticancer activities of DNA-damaging drugs and inhibitors of DNA damage repair, both as single agents and in combinations. […] Twenty-six patient-derived or established malignant cell lines were evaluated representing sarcoma, melanoma, small cell lung cancer (SCLC), non-small cell lung cancer (NSCLC), as well as bladder, ovarian and pancreatic cancers. […]

| compound | IC50 |
| --- | --- |
| CC(C)n1c(=O)n(C)c2cnc3cc(F)c(-c4ccc(OCCCN5CCCCC5)nc4)cc3c21 + CC[C@@]1(O)C(=O)OCc2c1cc1n(c2=O)Cc2cc3c(CN(C)C)c(O)ccc3nc2-1 | < 31.6 nM |
| O=C(c1cc(Cc2n[nH]c(=O)c3ccccc23)ccc1F)N1CCN(C(=O)C2CC2)CC1 + CC[C@@]1(O)C(=O)OCc2c1cc1n(c2=O)Cc2cc3c(CN(C)C)c(O)ccc3nc2-1 | < 94.9 nM |
| CNCc1ccc(-c2cc(-c3nc(-c4ccc(S(=O)(=O)C(C)C)cc4)cnc3N)on2)cc1 + CC[C@@]1(O)C(=O)OCc2c1cc1n(c2=O)Cc2cc3c(CN(C)C)c(O)ccc3nc2-1 | < 9.49 nM |
| Cn1ncnc1[C@H]1c2n[nH]c(=O)c3cc(F)cc(c23)N[C@@H]1c1ccc(F)cc1 + CC[C@@]1(O)C(=O)OCc2c1cc1n(c2=O)Cc2cc3c(CN(C)C)c(O)ccc3nc2-1 | < 9.49 nM |
| COc1cc(C)[nH]c(=O)c1CN1CCc2c(Cl)cc(C(OC)C3COC3)c(Cl)c2C1=O (stereo not given) + CC[C@@]1(O)C(=O)OCc2c1cc1n(c2=O)Cc2cc3c(CN(C)C)c(O)ccc3nc2-1 | < 31.6 nM |

----------
System: 349418-098-R tumor spheroid viability
method-description: Anticancer human tumor 349418-098-R cell line growth inhibition;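 note: spheroids exposed to compound for 7 days before measurement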;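 for viability, T/C: percent of vehicle control viability with 100% = DMSO-treated spheroids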
condition: second compound 0.003 µM; first compound 10 µM; stronger effect = lower value; spheroids with HUVEC and MSC
property-measured: viability, T/C

| molecule | result |
| --- | --- |
| COc1ccc([C@@H](O)c2cc(-c3ncnc4cc(N5CCOCC5)ccc34)c(F)cc2Cl)nn1 + COc1cc2c(cc1O)CCNC21CSC2c3c(OC(C)=O)c(C)c4c(c3C(COC1=O)N1C(O)C3Cc5cc(C)c(OC)c(O)c5C(C21)N3C)OCO4 | 4.47% |
| [2H]c1nc(C)nc([2H])c1-c1cc(NC[C@@H](C)c2cccc3c(C(=O)NC)ccnc23)ncn1 + CC[C@@]1(O)C(=O)OCc2c1cc1n(c2=O)Cc2cc3c(CN(C)C)c(O)ccc3nc2-1 | 102% |
| [2H]c1nc(C)nc([2H])c1-c1cc(NC[C@@H](C)c2cccc3c(C(=O)NC)ccnc23)ncn1 + COc1cc2c(cc1O)CCNC21CSC2c3c(OC(C)=O)c(C)c4c(c3C(COC1=O)N1C(O)C3Cc5cc(C)c(OC)c(O)c5C(C21)N3C)OCO4 | 2.34% |
| CC(C)n1c(=O)n(C)c2cnc3cc(F)c(-c4ccc(OCCCN5CCCCC5)nc4)cc3c21 + CC[C@@]1(O)C(=O)OCc2c1cc1n(c2=O)Cc2cc3c(CN(C)C)c(O)ccc3nc2-1 | 63.9% |
| CC(C)n1c(=O)n(C)c2cnc3cc(F)c(-c4ccc(OCCCN5CCCCC5)nc4)cc3c21 + COc1cc2c(cc1O)CCNC21CSC2c3c(OC(C)=O)c(C)c4c(c3C(COC1=O)N1C(O)C3Cc5cc(C)c(OC)c(O)c5C(C21)N3C)OCO4 | 1.51% |
